Data origin, for the record: patent US20020142334A1

target: human PARP-1 (Homo sapiens, UniProt P09874); construct: purchased Trevigen 4667-250-01; assay: Biotin-Avidin PARP assay (biotinylated NAD auto-ribosylation, immobilized PARP); assay type: biochemical
Sequence (P09874 whole entry): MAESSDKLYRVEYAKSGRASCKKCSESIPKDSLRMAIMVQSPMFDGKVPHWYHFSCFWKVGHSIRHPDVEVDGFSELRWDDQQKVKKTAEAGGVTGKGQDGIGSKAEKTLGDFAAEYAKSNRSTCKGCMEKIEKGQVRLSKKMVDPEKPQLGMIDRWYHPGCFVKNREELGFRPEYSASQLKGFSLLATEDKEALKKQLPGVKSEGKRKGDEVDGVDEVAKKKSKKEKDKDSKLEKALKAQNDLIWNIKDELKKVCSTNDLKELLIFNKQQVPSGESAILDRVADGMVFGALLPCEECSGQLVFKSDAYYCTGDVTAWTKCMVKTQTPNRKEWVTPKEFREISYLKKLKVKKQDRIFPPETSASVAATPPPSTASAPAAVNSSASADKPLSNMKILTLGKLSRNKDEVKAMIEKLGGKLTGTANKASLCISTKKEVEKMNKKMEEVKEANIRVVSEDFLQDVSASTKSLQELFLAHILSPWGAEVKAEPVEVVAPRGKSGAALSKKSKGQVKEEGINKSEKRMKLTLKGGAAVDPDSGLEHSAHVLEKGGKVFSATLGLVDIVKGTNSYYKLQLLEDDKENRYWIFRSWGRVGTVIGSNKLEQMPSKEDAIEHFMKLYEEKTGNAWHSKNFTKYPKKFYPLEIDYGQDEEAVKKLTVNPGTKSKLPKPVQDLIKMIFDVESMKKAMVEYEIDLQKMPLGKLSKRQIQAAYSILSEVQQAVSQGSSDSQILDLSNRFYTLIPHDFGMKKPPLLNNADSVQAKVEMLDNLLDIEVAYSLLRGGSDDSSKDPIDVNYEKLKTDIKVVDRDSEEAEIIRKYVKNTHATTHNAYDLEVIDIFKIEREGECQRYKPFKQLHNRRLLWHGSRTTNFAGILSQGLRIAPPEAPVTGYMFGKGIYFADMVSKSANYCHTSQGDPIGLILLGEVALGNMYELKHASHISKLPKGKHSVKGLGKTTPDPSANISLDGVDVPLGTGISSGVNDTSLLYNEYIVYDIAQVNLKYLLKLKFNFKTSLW
ENDPOINT: IC50 (nM)
Just the number please, in nM, no unit attached.

[ask] # lookup: IC50 of Cc1nc2c(O)cccc2c(=O)[nH]1 [Compound A, 8-hydroxy-2-methyl-quinazolin-4-[3H]-one]
[reply] 460
